target: PD-1; experiment: competition binding, 1st experiment; rank among the clones; competitor not given
measure-name: Competition Binding, 1st exp. (ranking)

Query: What Competition Binding, 1st exp. (ranking) value was documented for this binder, Clone No. 2 (antibody, human IgG4 S228P, kappa, V domains shown) VH: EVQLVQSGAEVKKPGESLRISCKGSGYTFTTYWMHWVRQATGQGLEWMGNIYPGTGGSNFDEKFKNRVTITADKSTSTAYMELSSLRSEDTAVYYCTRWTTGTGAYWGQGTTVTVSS VL: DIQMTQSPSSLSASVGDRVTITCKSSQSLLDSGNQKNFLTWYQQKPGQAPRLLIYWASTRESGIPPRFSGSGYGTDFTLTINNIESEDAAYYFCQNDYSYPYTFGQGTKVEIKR ?
Reply: 3

Query: # lookup: Competition Binding, 1st exp. (ranking) of Clone No. 5 (antibody, human IgG4 S228P, kappa, V domains shown) VH: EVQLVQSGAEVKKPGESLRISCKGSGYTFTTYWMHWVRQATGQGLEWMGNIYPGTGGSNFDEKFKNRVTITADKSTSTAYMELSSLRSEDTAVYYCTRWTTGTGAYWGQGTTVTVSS VL: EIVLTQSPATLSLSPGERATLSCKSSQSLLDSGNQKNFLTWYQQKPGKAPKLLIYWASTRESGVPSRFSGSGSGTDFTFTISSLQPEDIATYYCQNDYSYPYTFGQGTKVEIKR
Reply: 5
